# Tested on: Fibroblast
# method notes: Multiplex assay against human fibroblast
# Format: toxicity, cell-based
# assay context: 12 h, 1 µM, compound concentration 1 uM, replicate 2
observed property: Population Membrane Permeable-Phenotype (%)
Output spec: scalar in %, unitless text.

Use the examples below as a reference point.
CC(C)C[C@H](CO)Nc1nc(S[C@@H](C)c2ccccc2)nc2nc(N)sc12 = 16
CN1CCC(C(=O)c2cccc(NC(=O)c3c(F)cc(F)cc3F)n2)CC1 = 5
CN1C[C@H](C(=O)N[C@]2(C)O[C@@]3(O)[C@@H]4CCCN4C(=O)[C@H](Cc4ccccc4)N3C2=O)C[C@@H]2c3cccc4[nH]cc(c34)C[C@H]21.CS(=O)(=O)O [DIHYDROERGOTAMINE MESYLATE] = 6
Cc1sc2c(c1C)C(c1ccc(Cl)cc1)=N[C@H](CC(=O)OC(C)(C)C)c1nnc(C)n1-2 = 15
COc1cc2nc(N3CCN(C(=O)c4ccco4)CC3)nc(N)c2cc1OC.Cl [PRAZOSIN HYDROCHLORIDE] = 5

Please turn your attention to the following entry.
Input: Entry C[C@H](NC(=O)CNC(=O)c1cccc(Cl)c1)c1ccccc1 , system Fibroblast: what Population Membrane Permeable-Phenotype (%) was measured?
Output: 6

====

# Tested on: Fibroblast
# method notes: Multiplex assay against human fibroblast
# Format: toxicity, cell-based
# assay context: 48 h, 10 µM, compound concentration 10 uM, replicate 1
// reported Population Mitochondria Different-Phenotype (%) per item
Reply with just the number (in %).

Input: Recorded Population Mitochondria Different-Phenotype (%) of CCn1c(-c2nc3cc(C(=O)N4CCCC(N)C4)ccc3n2C)cc2ccccc21.Cl (stereo not drawn) , please.
Output: 22

Input: What value of measured Population Mitochondria Different-Phenotype (%) is listed for CC(C)(O)C(=O)N1CCN(c2ccc(C(F)(F)F)c(C3=C(c4c[nH]c5ccccc45)C(=O)NC3=O)c2)CC1 ?
Output: 53

Input: So what's the measured Population Mitochondria Different-Phenotype (%) for this one? C[C@@H]1CC(=O)Nc2cccc(-c3ccc4c(c3)c(-c3cnn(C)c3)nn4C)c2N1
Output: 19

Input: Value lookup for Population Mitochondria Different-Phenotype (%); key = C=CCN1C[C@H](C(=O)N(CCCN(C)C)C(=O)NCC)C[C@@H]2c3cccc4[nH]cc(c34)C[C@H]21
Output: 4

Input: # get_value(readout='Population Mitochondria Different-Phenotype (%)', item= CCCCC[C@H](O)/C=C/[C@H]1[C@H](O)CC(=O)[C@@H]1CCCCCCC(=O)O )
Output: 7

====

# System: U2OS
# method notes: Multiplex assay against U2OS
# Assay type: toxicity, cell-based
# assay context: human, 48 h, 10 µM, compound concentration 10 uM, replicate 1
Consider the cut-off 70%. If the recorded Population Healthy Nuclei (%) is strictly smaller, the label is Criterion met; if not, the label is Criterion not met.

Study these solved cases before continuing.
CC(C)(O)C(=O)N1CCN(c2ccc(C(F)(F)F)c(C3=C(c4c[nH]c5ccccc45)C(=O)NC3=O)c2)CC1 = Criterion met
S=C(NCCCc1c[nH]cn1)NCCCN(Cc1ccc(Cl)c(Cl)c1)c1ccc(Br)cn1 = Criterion met
CN(C)C(=O)Cn1cc(-c2ccc(-c3nnc4ccccn34)cc2)cn1 = Criterion met
CN(C)C/C=C/C(=O)Nc1ccc(C(=O)N2CCCC(Nc3ncc(Cl)c(-c4c[nH]c5ccccc45)n3)C2)cc1 (stereo not given) = Criterion met
COc1cc2nc(N3CCN(C(=O)COc4c(OC)cccc4C(C)C)CC3)nc(N)c2cc1OC.Cl.Cl = Criterion met
CCCCC[C@H](O)/C=C/[C@H]1[C@H](O)CC(=O)[C@@H]1CCCCCCC(=O)O = Criterion not met

Input: Say whether its Population Healthy Nuclei (%) is strictly beneath 70%. Entry: Nc1nc(CC(=O)Nc2ccc(CCNC[C@H](O)c3ccccc3)cc2)cs1
Output: Criterion not met

Input: Does CSc1nc(NC2CCCC2)c([N+](=O)[O-])c(NC2CCCC2)n1 have Population Healthy Nuclei (%) strictly under 70%?
Output: Criterion met

Input: Confirm or reject: Population Healthy Nuclei (%) of CN1C[C@H](C(=O)N[C@]2(C)O[C@@]3(O)[C@@H]4CCCN4C(=O)[C@H](Cc4ccccc4)N3C2=O)C[C@@H]2c3cccc4[nH]cc(c34)C[C@H]21.CS(=O)(=O)O [DIHYDROERGOTAMINE MESYLATE] lies strictly below 70%
Output: Criterion not met

Input: Quick check: does Cn1cc(C(=O)OCC2CCN(CCNS(C)(=O)=O)CC2)c2ccccc21 have Population Healthy Nuclei (%) under 70%?
Output: Criterion met
